measurement-notes: soluble on expression in E. coli; label from the status in PepcDB or PDB records
readout-name: soluble on expression in E. coli

residue-sequence	readout-name	meas-value
MNAAQVQALIRMGLPMAEDIDFRVERLDERHALARIPFHGKLVRPGGTLSGPTIMALADAAMYAVILGRLGAVEMAVTSNLNINFLSKPRPEDLLAEASILKLGRRQVVCEVGVFSQSNEEDLVAHVTGTYALPLLEHHHHHH	soluble on expression in E. coli	soluble
HQYFFAKLQEQQNRYAKYGETAYNLEPNIKNGPGGLRDLQILLSISKRHFKIKKLAEGIGYGFITDKEYEELKYCQNFLWRVRFALHMLAGKPEERLSFDYQVKLAQFFGYQDQSHILAIEQFMKDYFKVIKRNRELNEMLLQWFNETIVYHQKQKIIRLDDEFQLSNRFIEVRNNRVFKQNPQSILKLFYWLVKRPDIEGVRASTIRLI	soluble on expression in E. coli	not soluble
HLVCPMSKSPYVDPHKSGHEIWEEFSMSFTPAVKEVVEFAKRIPGFRDLSQHDQVNLLKAGTFEVLMVRFASLFDAKERTVTFLSGKKYSVDDLHSMGAGDLLNSMFEFSEKLNALQLSDEEMSLFTAVVLVSADRSGIENVNSVEALQETLIRALRTLIMKNHPNEASIFTKLLLKLPDLRSLNNMHSEELLAFKVHP	soluble on expression in E. coli	soluble
MGSDKIHHHHHHFVSIELKDRSLVNNQYKGKIKSANLSVDYEINQVMKDIDKLGLNTVNVPIIINVESINSDIMSIDNNSKEKAIKLIKKLNKKGISTILEAYPWIENGKLYETDWNPINKKRFFYTWQNAILNELIIDVANPLDVNVLNIGSNFVHLEEYQQNWGEIIDFVQSKFDGLVTYRTNWWYTKKDDLSSKLFYEQKLNNNFFDKLDFISIAAYFELSNKPVNTVDELISALHSSTVNNRGQNIKQEIYNLYKAHRKPIFFGELGFSNRESASSQPWNHTPSKAVNGEEQARCFEAYKKVFENEDWINGFSVFCVGKIDDEKNFYPSKESIKVIKSWYE	soluble on expression in E. coli	not soluble
MGSDKIHHHHHHMEANNGKMERIQEMLRMFGLSSYEAQGFAALVYHGVANADTIASTANIPRTSAYKVMESLVRKGLAKATEGRPRMFKPAKMEEIRDYYEEKLQQLFRDLKELEDNAPSRGEPQLIYTINGSQKVMEKIEEMINLTEHEIMISTPKIIEIRKQMKKPIENAIKRGVRVVFVIPPNKRVPANVIVYRRDGLIATDIVSDQIRALIAGPDLETCGYSDNPMLSMHVYQFINILINKPEIQG	soluble on expression in E. coli	not soluble
MGSDKIHHHHHHMSNDKEIIKRAVERHDIDSSIFQGRYVNFTQGKYTDEFIYGRYQMFEEIDRILSSLPKGAKVLDLGCGTGHFSTYIKTLCYEVTGLDPSTKMLDYARQNFPEITFVEGYSNALPFEDNTFDLIISIEVLRYLDTKIVLESYEEIYRTLKPNGKMFITHVNTLATEGYYIFYHLKKLAHSFKGKEYHSAYFTSANKEERTLKKIGFKNISCIGRMFATVRTGYKFGKTIGKTYAKLLEKFNPKQRFEKSHFKNFTGHLIVIAEK	soluble on expression in E. coli	not soluble
